Origin of the recorded values: paper PMC3230590

Molecular target: T1, human BROX(1-401) (human, UniProt Q5VW32 1-401)
T1 construct: BROX, human, residues 1-401; lacks the 10 C-terminal residues 402-411 with the farnesylated Cys408; Residues of the vector may remain after TEV cleavage (surmise); also called wild type BROX; recombinant human BROX; not shown: His6, N-terminal, cleaved
T1 sequence (looked up): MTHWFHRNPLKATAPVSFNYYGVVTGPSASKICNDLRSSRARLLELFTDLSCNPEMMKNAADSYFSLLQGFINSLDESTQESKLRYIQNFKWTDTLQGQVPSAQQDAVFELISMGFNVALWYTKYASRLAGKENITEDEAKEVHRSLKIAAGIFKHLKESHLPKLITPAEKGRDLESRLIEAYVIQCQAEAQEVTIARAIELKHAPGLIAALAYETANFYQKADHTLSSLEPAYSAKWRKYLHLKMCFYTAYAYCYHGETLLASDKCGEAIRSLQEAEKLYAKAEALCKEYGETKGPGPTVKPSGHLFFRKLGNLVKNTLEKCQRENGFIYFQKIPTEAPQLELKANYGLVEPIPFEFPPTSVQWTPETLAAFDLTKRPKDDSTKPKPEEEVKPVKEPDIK
Test: SPR; Biacore 2000; CM5 chip with amine-coupled anti-GST antibody capturing GST-CHMP4B(205-224) or GST alone from crude E. coli lysates; pure BROX proteins injected in triplicate, 1.5-fold dilution series from 400 µM; equilibrium responses fit to 1:1 isotherms
Settings: both partners purified
pKd: −log10 of the molar value.

Binder	pKd
KKKEEEDDDMKELENWAGSM (domain or fragment, UniProt Q9H444 205-224, looked up, also called C-terminal fragment from CHMP4B; source: E. coli, captured from crude expression lysates on an anti-GST antibody sensor chip) [GST-CHMP4B(205-224)]	4.01
